- Tested on: SK-OV-3
- testDescription: Cytotoxicity against human SKOV3 cells assessed as cell viability after 48 hrs by neutral red uptake assay
- Type: cell-based
- conditions: sk-ov-3, 48 h
Residues, ends and D or L forms follow the SMILES beside them. *: point of attachment. NHBn = c1ccc(CN*)cc1
Entries and their Activity

Examples from the recorded data:
compound	targetOfAssay	measuredParameter	assayValue
CC(C)(C)OC(=O)N[C@@H](Cc1c[nH]c2ccccc12)C(=O)N[C@@H](Cc1c[nH]c(-c2cccc3ccccc23)n1)C(=O)NCc1ccccc1	SK-OV-3	Activity	> 10 µg/mL
COC(=O)[C@H](Cc1c[nH]c(-c2ccc(C)cc2)n1)NC(=O)[C@@H](N)Cc1c[nH]c2ccccc12	SK-OV-3	Activity	> 10 µg/mL
COC(=O)[C@H](CCCNC(=N)N)NC(=O)[C@@H](N)Cc1c[nH]c(-c2ccc(OC)cc2)n1	SK-OV-3	Activity	> 10 µg/mL
N=C(N)NCCC[C@H](NC(=O)[C@@H](N)Cc1c[nH]cn1)C(=O)NCc1ccccc1 (H-His-Arg-NHBn)	SK-OV-3	Activity	> 10 µg/mL
COc1ccc(-c2nc(C[C@H](NC(=O)[C@@H](N)Cc3c[nH]c4ccccc34)C(=O)NCc3ccccc3)c[nH]2)cc1	SK-OV-3	Activity	> 10 µg/mL
COc1ccc(-c2nc(C[C@H](N)C(=O)N[C@@H](CCCNC(=N)N)C(=O)NCc3ccccc3)c[nH]2)cc1	SK-OV-3	Activity	> 10 µg/mL

// next item, Activity requested
The recorded Activity with SK-OV-3 for `COC(=O)[C@H](Cc1c[nH]c(-c2ccc(-c3ccccc3)cc2)n1)NC(=O)[C@@H](N)Cc1c[nH]c2ccccc12` was > 10 µg/mL

###

Entries and their Activity
- Tested on: SK-OV-3
- testDescription: Cytotoxicity against human SKOV3 cells assessed as cell viability after 48 hrs by neutral red uptake assay
- Assay type: cell-based
- conditions: sk-ov-3, 48 h

Memo: `COC(=O)[C@H](CCCNC(=N)N)NC(=O)[C@H](Cc1c[nH]c(-c2ccc(C(C)(C)C)cc2)n1)NC(=O)OC(C)(C)C` , reported Activity: > 10 µg/mL

Memo: `COc1ccc(-c2nc(C[C@H](NC(=O)[C@H](Cc3c[nH]c4ccccc34)NC(=O)OC(C)(C)C)C(=O)NCc3ccccc3)c[nH]2)cc1` , reported Activity: > 10 µg/mL

Memo: `Cc1ccc(-c2nc(C[C@H](NC(=O)[C@H](Cc3c[nH]c4ccccc34)NC(=O)OC(C)(C)C)C(=O)NCc3ccccc3)c[nH]2)cc1` , reported Activity: > 10 µg/mL

Memo: `COC(=O)[C@H](CCCNC(=N)N)NC(=O)[C@@H](N)Cc1c[nH]c(-c2cccc3ccccc23)n1` , reported Activity: > 10 µg/mL

###

- testDescription: Selectivity index, ratio of cytotoxicity against african green monkey Vero cells to IC50 for Cryptococcus neoformans ATCC 90113
- Assay type: toxicity, cell-based
- conditions: read-out: Selectivity Index
Entries and their selectivity ratio

Examples from the recorded data:
CC(C)(C)OC(=O)N[C@@H](Cc1c[nH]c(-c2cccc3ccccc23)n1)C(=O)N[C@@H](CCCNC(=N)N)C(=O)NCc1ccccc1 > 3.6
N=C(N)NCCC[C@H](NC(=O)[C@@H](N)Cc1c[nH]c(-c2ccccc2)n1)C(=O)NCc1ccccc1 > 8.2
COC(=O)[C@H](Cc1c[nH]c(-c2ccc(-c3ccccc3)cc2)n1)NC(=O)[C@@H](N)Cc1c[nH]c2ccccc12 > 2.6
Cc1ccc(-c2nc(C[C@H](NC(=O)[C@@H](N)Cc3c[nH]c4ccccc34)C(=O)NCc3ccccc3)c[nH]2)cc1 > 1.3
CC(C)(C)OC(=O)N[C@@H](Cc1c[nH]c(-c2ccc(C(C)(C)C)cc2)n1)C(=O)N[C@@H](CCCNC(=N)N)C(=O)NCc1ccccc1 > 4.1
CC(C)(C)c1ccc(-c2nc(C[C@H](NC(=O)[C@@H](N)Cc3c[nH]c4ccccc34)C(=O)NCc3ccccc3)c[nH]2)cc1 > 2.21

Memo: `CC(C)(C)OC(=O)N[C@@H](Cc1c[nH]c(-c2ccccc2)n1)C(=O)N[C@@H](CCCNC(=N)N)C(=O)NCc1ccccc1` , reported selectivity ratio: > 3.9

Memo: `Cc1ccc(-c2nc(C[C@H](NC(=O)OC(C)(C)C)C(=O)N[C@@H](CCCNC(=N)N)C(=O)NCc3ccccc3)c[nH]2)cc1` , reported selectivity ratio: > 1.7
